The values you see were collected from patent US20190038721A1.

Target: human GLP-1 receptor (human, UniProt P43220 24-463)
Experiment: cell-based or functional assay
Starred links: 1 amine or outer side, 2 acyl side, 3 side chain; linkers in the order of their positions; H or OH if unused. Groups on a side chain read outwards from the residue. No end group written: not given here. *: point of attachment. 2‑(bis(3-aminopropyl)amino)acetyl = branch point, each 3-aminopropyl arm carries one of the two bracketed chains; 4‑(aminomethyl)cyclohexanecarbonyl = 4-(aminomethyl)cyclohexanecarbonyl linker unit; Decanoyl(10-(4-HOOC-PhO)) = O=C(O)c1ccc(OCCCCCCCCCC(=O)*)cc1; C20 diacid = O=C(O)CCCCCCCCCCCCCCCCCCC(=O)*; γGlu = O=C(O)[C@H](CCC(=O)[*:2])N[*:1]; Palmitoyl = CCCCCCCCCCCCCCCC(=O)*; AEEA = NCCOCCOCC(=O)O
# strict inequality: EC50 (pM), in vitro potency, CRE luciferase reporter gene assay in BHK cells < 20 pM yields Condition met, everything else yields Condition not met

binder: HWEGTFTSDVSSYLEGQAAK([γGlu-Palmitoyl])EFIAWLVRGRG [N{Epsilon-26}-[(4S)-4-carboxy-4-(hexadecanoylamino)butanoyl]-[Trp8,Arg34]-GLP-1-(7-37)-peptide]
category: Condition not met
--
binder: HWEGTFTSDVSSYLEEQAAREFIAWLVRGRK([AEEA-AEEA-2,6‑diaminohexanoyl-AEEA-AEEA-AEEA-AEEA-γGlu-4‑(aminomethyl)cyclohexanecarbonyl-C20 diacid)+(AEEA-AEEA-AEEA-AEEA-γGlu-4‑(aminomethyl)cyclohexanecarbonyl-C20 diacid]) (the claim prints (2S)-2,6-bis; also called 12)
category: Condition not met
--
binder: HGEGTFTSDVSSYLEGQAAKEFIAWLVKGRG [[Gly8]-GLP-1-(7-37)-peptide]
category: Condition not met
--
binder: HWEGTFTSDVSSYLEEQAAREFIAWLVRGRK([AEEA-AEEA-2‑(bis(3-aminopropyl)amino)acetyl-AEEA-AEEA-AEEA-AEEA-γGlu-4‑(aminomethyl)cyclohexanecarbonyl-C20 diacid)+(AEEA-AEEA-AEEA-AEEA-γGlu-4‑(aminomethyl)cyclohexanecarbonyl-C20 diacid]) (also called 13) [N{Epsilon-37}-[2-[2-[2-[[2-[2-[2-[[2-[bis[3-[[2-[2-[2-[[2-[2-[2-[[2-[2-[2-[[2-[2-[2-[[(4 …]
category: Condition not met
--
binder: HWEGTFTSDVSSYLEGQAAK([AEEA-AEEA-γGlu-Decanoyl(10-(4-HOOC-PhO))])EFIAWLVRGRK([AEEA-AEEA-γGlu-Decanoyl(10-(4-HOOC-PhO))])
category: Condition not met
--
binder: HPEGTFTSDVSSYLEEQAAREFIAWLVKGRG [[Pro8,Glu22,Arg26]-GLP-1-(7-37)-peptide]
category: Condition met
--
binder: HWEGTFTSDVSSYLEGQAAKEFIAWLVKGRG (also called 8W GLP-1(7-37)) [[Trp8]-GLP-1-(7-37)-peptide]
category: Condition met
--
binder: HWEGTFTSDVSSYLEEQAAREFIAWLVRGRGK([AEEA-AEEA-γGlu-4‑(aminomethyl)cyclohexanecarbonyl-C20 diacid])GGSK([AEEA-AEEA-γGlu-4‑(aminomethyl)cyclohexanecarbonyl-C20 diacid])
category: Condition not met
